TGT: porcine pancreatic elastase (porcine, UniProt P00772 27-266)
Sequence (P00772 27-266): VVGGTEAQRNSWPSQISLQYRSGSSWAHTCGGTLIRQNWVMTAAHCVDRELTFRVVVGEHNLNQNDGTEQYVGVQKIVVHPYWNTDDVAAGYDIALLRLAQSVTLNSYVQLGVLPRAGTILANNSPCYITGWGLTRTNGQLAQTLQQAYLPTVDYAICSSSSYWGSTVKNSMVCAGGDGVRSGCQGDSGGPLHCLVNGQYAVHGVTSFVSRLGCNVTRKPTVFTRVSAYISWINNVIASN
EXPERIMENT_DESCRIPTION: cell-based or functional assay
PROPERTY_LABEL: amount of purified protein to fully inhibit PPE (typically 160 nM, 200 uL, +40 mM 2-ME) (µg)

# BINDER, VAL
rows = [
    ("human serpin B1 C344V variant (other) MEQLSSANTRFALDLFLALSENNPAGNIFISPFSISSAMAMVFLGTRGNTAAQLSKTFHFNTVEEVHSRFQSLNADINKRGASYILKLANRLYGEKTYNFLPEFLVSTQKTYGADLASVDFQHASEDARKTINQWVKGQTEGKIPELLASGMVDNMTKLVLVNAIYFKGNWKDKFMKEATTNAPFRLNKKDRKTVKMMYQKKKFAYGYIEDLKCRVLELPYQGEELSMVILLPDDIEDESTGLKKIEEQLTLEKLHEWTKPENLDFIEVNVSLPRFKLEESYTLNSDLARLGVQDLFNSSKADLSGMSGARDIFISKIVHKSFVEVNEEGTEAAAATAGIATFVMLMPEENFTADHPFLFFIRHNSSGSILFLGRFSSP", 1.5),
]
